All figures here come from patent US20090275583A1.

# System: HIV-1NL4-3
# assay-text: P4-MAGI assay
# Format: cell-based
# assay-context: Human immunodeficiency virus 1, 24 h, P4 cells, 24 hour incubation, β-galactosidase expression; read-out: P4-MAGI IC50
compounds and their reported IC50
Provide only the numeric value, understood in nM.

[[record]]
compound = "C=C(C)[C@@H]1CC[C@]2(C(=O)NCc3ccc(OC)c(C(=O)NCCCCC(=O)O)c3)CC[C@]3(C)C(CCC4[C@@]5(C)CC[C@H](O)C(C)(C)C5CC[C@]43C)C12 (some centres unmarked) [Example 114]"
target_of_assay = "HIV-1NL4-3"
result_value = 48.4

[[record]]
compound = "C=C(C)[C@@H]1CC[C@]2(C(=O)NCc3cc(C(=O)NCc4cccc(C(=O)O)c4F)ccc3F)CC[C@]3(C)C(CCC4[C@@]5(C)CC[C@H](O)C(C)(C)C5CC[C@]43C)C12 (some centres unmarked) [Example 186]"
target_of_assay = "HIV-1NL4-3"
result_value = 120

[[record]]
compound = "C=C(C)[C@@H]1CC[C@]2(C(=O)NCc3cccc(-c4nc5cc(C(=O)O)ccc5[nH]4)c3)CC[C@]3(C)C(CCC4[C@@]5(C)CC[C@H](O)C(C)(C)C5CC[C@]43C)C12 (some centres unmarked) [Example 126]"
target_of_assay = "HIV-1NL4-3"
result_value = 66

[[record]]
compound = "C=C(C)[C@@H]1CC[C@]2(C(=O)NCCc3cccc(OCC(O)c4ccc(C(=O)O)cc4)c3)CC[C@]3(C)C(CCC4[C@@]5(C)CC[C@H](O)C(C)(C)C5CC[C@]43C)C12 (some centres unmarked) [Example 220]"
target_of_assay = "HIV-1NL4-3"
result_value = 259


Consider the additional compound presented here.
IN: Provide the documented IC50 with HIV-1NL4-3 as the system for C=C(C)[C@@H]1CC[C@]2(C(=O)NCCc3cccc(OCCCCC(=O)O)c3)CC[C@]3(C)C(CCC4[C@@]5(C)CC[C@H](O)C(C)(C)C5CC[C@]43C)C12 (some centres unmarked) [Example 113]
OUT: 721

====

# Test system: HIV-1NL4-3
# assay-text: P4-MAGI assay
# Assay type: cell-based
# assay-context: Human immunodeficiency virus 1, 24 h, P4 cells, 24 hour incubation, β-galactosidase expression; read-out: P4-MAGI IC50
Hi! Just check whether IC50 is below 20 nM. Below gives YES, equal or above gives NO.

[[record]]
molecule = "C=C(C)[C@@H]1CC[C@]2(C(=O)NCc3cccc(C(=O)NCCc4cccc(C(=O)O)c4)c3)CC[C@]3(C)C(CCC4[C@@]5(C)CC[C@H](O)C(C)(C)C5CC[C@]43C)C12 (some centres unmarked) [Example 11]"
label_class = "NO"

[[record]]
molecule = "C=C(C)[C@@H]1CC[C@]2(C(=O)Nc3cccc(C(=O)NCCc4cccc(C(=O)O)c4)c3)CC[C@]3(C)C(CCC4[C@@]5(C)CC[C@H](O)C(C)(C)C5CC[C@]43C)C12 (some centres unmarked) [Example 85]"
label_class = "NO"

[[record]]
molecule = "C=C(C)[C@@H]1CC[C@]2(C(=O)NCc3cccc(C(=O)NCc4ccc(C(=O)O)c(F)c4)c3)CC[C@]3(C)C(CCC4[C@@]5(C)CC[C@H](O)C(C)(C)C5CC[C@]43C)C12 (some centres unmarked) [Example 34]"
label_class = "NO"

[[record]]
molecule = "C=C(CN1CCCC1)[C@@H]1CC[C@]2(C(=O)NCCc3cccc(C(=O)NCc4ccc(C(=O)O)cn4)c3)CC[C@]3(C)C(CCC4[C@@]5(C)CC[C@H](O)C(C)(C)C5CC[C@]43C)C12 (some centres unmarked) [Example 265]"
label_class = "NO"


Then this molecule:
IN: Problem: For the molecule C=C(C)[C@@H]1CC[C@]2(C(=O)NCc3cccc(C(=O)NCCc4ccc(C(=O)O)cc4F)c3)CC[C@]3(C)C(CCC4[C@@]5(C)CC[C@H](O)C(C)(C)C5CC[C@]43C)C12 (some centres unmarked) [Example 43] , is IC50 under 20 nM?
OUT: YES
